B1: Chromodomain-helicase-DNA-binding protein 3, residues 374 to 426; numbered along this chain, Q12873 (parent)
chain: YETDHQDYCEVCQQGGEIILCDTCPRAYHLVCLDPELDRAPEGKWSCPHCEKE

variants of: B1; assay: abundance fitness (aPCA) (normalised: wild type 0, dead -1); higher = more abundant; growth selection in yeast, the domain comes from the species named; conditions: Homo sapiens
Ranges used to classify abundance fitness: class A: < -0.3; class B: ≥ -0.3 and < -0.04; class C: ≥ -0.04

>  <variantString>
H29K

>  <assignedLabel>
class A

$$$$
>  <variantString>
Q13G

>  <assignedLabel>
class B

$$$$
>  <variantString>
P25C

>  <assignedLabel>
class C

$$$$
>  <variantString>
Q14R

>  <assignedLabel>
class C

$$$$
>  <variantString>
R39Q

>  <assignedLabel>
class B

$$$$
>  <variantString>
E36V

>  <assignedLabel>
class C

$$$$
>  <variantString>
E17G

>  <assignedLabel>
class B

$$$$
>  <variantString>
E2P

>  <assignedLabel>
class B

$$$$
>  <variantString>
H5Q

>  <assignedLabel>
class C

$$$$
>  <variantString>
G16C

>  <assignedLabel>
class B

$$$$
>  <variantString>
D38N

>  <assignedLabel>
class A

$$$$
>  <variantString>
C32H

>  <assignedLabel>
class B

$$$$
>  <variantString>
D22T

>  <assignedLabel>
class B

$$$$
>  <variantString>
C32I

>  <assignedLabel>
class A

$$$$
>  <variantString>
D4W

>  <assignedLabel>
class B

$$$$
>  <variantString>
C12E

>  <assignedLabel>
class A

$$$$
>  <variantString>
L20C

>  <assignedLabel>
class C

$$$$
>  <variantString>
Y28V

>  <assignedLabel>
class B

$$$$
>  <variantString>
L20T

>  <assignedLabel>
class C

$$$$
>  <variantString>
L37N

>  <assignedLabel>
class B

$$$$
>  <variantString>
D7H

>  <assignedLabel>
class C

$$$$
>  <variantString>
Q13S

>  <assignedLabel>
class C

$$$$
>  <variantString>
I19V

>  <assignedLabel>
class B

$$$$
>  <variantString>
C24M

>  <assignedLabel>
class A

$$$$
>  <variantString>
Q6C

>  <assignedLabel>
class A

$$$$
>  <variantString>
R26Q

>  <assignedLabel>
class C

$$$$
>  <variantString>
L33G

>  <assignedLabel>
class C

$$$$
>  <variantString>
T23Q

>  <assignedLabel>
class A

$$$$
>  <variantString>
Y28L

>  <assignedLabel>
class B

$$$$
>  <variantString>
Q6W

>  <assignedLabel>
class A

$$$$
>  <variantString>
C32Q

>  <assignedLabel>
class A

$$$$
>  <variantString>
Y8A

>  <assignedLabel>
class C

$$$$
>  <variantString>
D22P

>  <assignedLabel>
class B

$$$$
>  <variantString>
T23W

>  <assignedLabel>
class A

$$$$
>  <variantString>
H5F

>  <assignedLabel>
class B

$$$$
>  <variantString>
L33I

>  <assignedLabel>
class B

$$$$
>  <variantString>
D34R

>  <assignedLabel>
class B

$$$$
>  <variantString>
C9R

>  <assignedLabel>
class A

$$$$
>  <variantString>
L30G

>  <assignedLabel>
class C

$$$$
>  <variantString>
I18Y

>  <assignedLabel>
class C

$$$$
>  <variantString>
E17C

>  <assignedLabel>
class C

$$$$
>  <variantString>
E10C

>  <assignedLabel>
class C

$$$$
>  <variantString>
C12D

>  <assignedLabel>
class A

$$$$
>  <variantString>
L37Q

>  <assignedLabel>
class B

$$$$
>  <variantString>
L20P

>  <assignedLabel>
class C

$$$$
>  <variantString>
Q14E

>  <assignedLabel>
class C

$$$$
>  <variantString>
Y28W

>  <assignedLabel>
class C

$$$$
>  <variantString>
H29A

>  <assignedLabel>
class A

$$$$
>  <variantString>
L37T

>  <assignedLabel>
class B

$$$$
>  <variantString>
C9A

>  <assignedLabel>
class A

$$$$
>  <variantString>
Q14L

>  <assignedLabel>
class B

$$$$
>  <variantString>
Q14D

>  <assignedLabel>
class B

$$$$
>  <variantString>
C24G

>  <assignedLabel>
class A

$$$$
>  <variantString>
D34F

>  <assignedLabel>
class B

$$$$
>  <variantString>
R26E

>  <assignedLabel>
class B

$$$$
>  <variantString>
T3H

>  <assignedLabel>
class A

$$$$
>  <variantString>
D34I

>  <assignedLabel>
class A

$$$$
>  <variantString>
H29L

>  <assignedLabel>
class A

$$$$
>  <variantString>
E36G

>  <assignedLabel>
class C

$$$$
>  <variantString>
L30E

>  <assignedLabel>
class B

$$$$
>  <variantString>
C24I

>  <assignedLabel>
class A

$$$$
>  <variantString>
C12N

>  <assignedLabel>
class A

$$$$
>  <variantString>
D34K

>  <assignedLabel>
class B

$$$$
>  <variantString>
D4I

>  <assignedLabel>
class B

$$$$
>  <variantString>
H29N

>  <assignedLabel>
class A

$$$$
>  <variantString>
I18H

>  <assignedLabel>
class C

$$$$
>  <variantString>
T3R

>  <assignedLabel>
class C

$$$$
>  <variantString>
D4L

>  <assignedLabel>
class C

$$$$
>  <variantString>
D7M

>  <assignedLabel>
class B

$$$$
>  <variantString>
L30V

>  <assignedLabel>
class C

$$$$
>  <variantString>
R26P

>  <assignedLabel>
class A

$$$$
>  <variantString>
E2S

>  <assignedLabel>
class C

$$$$
>  <variantString>
C24R

>  <assignedLabel>
class A

$$$$
>  <variantString>
V31I

>  <assignedLabel>
class B

$$$$
>  <variantString>
L20G

>  <assignedLabel>
class C

$$$$
>  <variantString>
G15P

>  <assignedLabel>
class A

$$$$
>  <variantString>
H29D

>  <assignedLabel>
class A

$$$$
>  <variantString>
C9Q

>  <assignedLabel>
class A

$$$$
>  <variantString>
Y1K

>  <assignedLabel>
class C

$$$$
>  <variantString>
Q13Y

>  <assignedLabel>
class C

$$$$
>  <variantString>
L20M

>  <assignedLabel>
class C

$$$$
>  <variantString>
E2M

>  <assignedLabel>
class C

$$$$
>  <variantString>
Q14V

>  <assignedLabel>
class B

$$$$
>  <variantString>
Q14H

>  <assignedLabel>
class B

$$$$
>  <variantString>
D7V

>  <assignedLabel>
class B

$$$$
>  <variantString>
G15T

>  <assignedLabel>
class C

$$$$
>  <variantString>
Y28D

>  <assignedLabel>
class A

$$$$
